# experimental target: Poly [ADP-ribose] polymerase 2 (Homo sapiens)
# Sequence (Q9UGN5 whole entry): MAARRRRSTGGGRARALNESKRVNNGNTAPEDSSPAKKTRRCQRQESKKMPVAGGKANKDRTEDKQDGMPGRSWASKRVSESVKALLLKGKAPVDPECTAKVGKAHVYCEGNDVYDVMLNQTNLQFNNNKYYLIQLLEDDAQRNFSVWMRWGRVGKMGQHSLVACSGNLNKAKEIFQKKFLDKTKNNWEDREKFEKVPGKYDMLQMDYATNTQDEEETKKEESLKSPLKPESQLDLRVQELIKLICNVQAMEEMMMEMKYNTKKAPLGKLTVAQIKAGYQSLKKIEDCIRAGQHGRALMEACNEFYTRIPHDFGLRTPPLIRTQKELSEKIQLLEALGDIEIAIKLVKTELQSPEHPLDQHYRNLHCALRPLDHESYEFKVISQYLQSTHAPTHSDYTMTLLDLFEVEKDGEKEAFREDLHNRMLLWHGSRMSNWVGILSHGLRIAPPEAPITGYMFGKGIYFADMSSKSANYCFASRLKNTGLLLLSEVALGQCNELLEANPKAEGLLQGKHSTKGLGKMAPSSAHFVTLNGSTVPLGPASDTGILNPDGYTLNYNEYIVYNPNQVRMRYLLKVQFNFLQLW
assay readout: pIC50
pIC50 here: minus log base 10 of the concentration, concentration in moles per litre.

Q: Give Poly [ADP-ribose] polymerase 2 (Homo sapiens) pIC50 for "NC(=O)c1cccc2cc(C(=O)N3CCN(Cc4cc5nc(-c6cnc(N)nc6)nc(N6CCOCC6)c5s4)CC3)oc12"
Ans: 8.92

###

# experimental target: Phosphatidylinositol 4,5-bisphosphate 3-kinase catalytic subunit gamma isoform (Homo sapiens)
# Sequence (P48736 whole entry, canonical isoform): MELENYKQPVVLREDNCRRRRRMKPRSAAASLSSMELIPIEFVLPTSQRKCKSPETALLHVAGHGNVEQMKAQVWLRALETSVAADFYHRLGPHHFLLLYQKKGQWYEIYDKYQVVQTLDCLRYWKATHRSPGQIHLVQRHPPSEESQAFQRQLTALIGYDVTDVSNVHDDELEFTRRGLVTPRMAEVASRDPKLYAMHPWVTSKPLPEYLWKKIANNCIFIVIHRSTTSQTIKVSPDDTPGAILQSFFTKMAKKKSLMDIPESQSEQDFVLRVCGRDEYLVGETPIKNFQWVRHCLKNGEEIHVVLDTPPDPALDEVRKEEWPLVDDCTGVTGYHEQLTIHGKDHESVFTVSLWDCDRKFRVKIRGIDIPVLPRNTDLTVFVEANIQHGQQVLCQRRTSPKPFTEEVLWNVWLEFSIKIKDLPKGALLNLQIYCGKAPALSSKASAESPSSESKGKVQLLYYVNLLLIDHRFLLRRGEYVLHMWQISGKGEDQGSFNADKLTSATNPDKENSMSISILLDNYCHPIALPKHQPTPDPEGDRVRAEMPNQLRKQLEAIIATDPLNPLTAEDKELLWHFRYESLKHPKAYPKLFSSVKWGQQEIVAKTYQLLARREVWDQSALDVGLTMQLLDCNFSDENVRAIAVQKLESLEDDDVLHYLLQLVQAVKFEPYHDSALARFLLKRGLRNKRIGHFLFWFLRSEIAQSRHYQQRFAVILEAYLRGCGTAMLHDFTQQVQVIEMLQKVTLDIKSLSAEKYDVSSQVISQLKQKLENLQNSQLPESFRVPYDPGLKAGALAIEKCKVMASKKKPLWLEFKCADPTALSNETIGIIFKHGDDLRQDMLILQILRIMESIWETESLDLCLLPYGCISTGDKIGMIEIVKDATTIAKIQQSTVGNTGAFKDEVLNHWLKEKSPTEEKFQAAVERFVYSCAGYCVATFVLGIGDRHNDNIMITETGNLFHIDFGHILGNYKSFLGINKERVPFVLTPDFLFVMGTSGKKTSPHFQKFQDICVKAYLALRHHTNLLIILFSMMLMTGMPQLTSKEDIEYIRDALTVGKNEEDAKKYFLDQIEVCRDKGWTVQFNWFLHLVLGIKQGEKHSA
# assay protocol: Inhibition of PI3Kgamma (unknown origin) using PIP2 as substrate measured after 1 hr by ADP-glo plus luminescence assay
Examples of molecules with documented IC50 follow.
Field format: number, assumed nM, no unit text.

Q: Entry "Cc1c(CN2CCN(C(=O)c3cc4cccc(C(N)=O)c4o3)CC2)sc2c(N3CCOCC3)nc(-c3cnc(N)nc3)nc12" : reported IC50 = ?
Ans: 73

Q: Entry "Cc1c(CN2CCN(C(=O)c3cc(Cc4n[nH]c(=O)c5ccccc45)ccc3F)CC2)sc2c(N3CCOCC3)nc(-c3cnc(N)nc3)nc12" : reported IC50 = ?
Ans: 25

Q: Entry "NC(=O)c1cccc2cc(C(=O)N3CCN(Cc4cc5nc(-c6cnc(N)nc6)nc(N6CCOCC6)c5s4)CC3)oc12" : reported IC50 = ?
Ans: 31

Q: Entry "NC(=O)c1cccc2cc(C(=O)N3CCN(Cc4cc5nc(-c6cnc(N)nc6)nc(N6CCOCC6)c5o4)CC3)oc12" : reported IC50 = ?
Ans: 141

###

# experimental target: Phosphatidylinositol 4,5-bisphosphate 3-kinase catalytic subunit alpha isoform (Homo sapiens, UniProt P42336)
# Sequence (P42336 whole entry, canonical isoform): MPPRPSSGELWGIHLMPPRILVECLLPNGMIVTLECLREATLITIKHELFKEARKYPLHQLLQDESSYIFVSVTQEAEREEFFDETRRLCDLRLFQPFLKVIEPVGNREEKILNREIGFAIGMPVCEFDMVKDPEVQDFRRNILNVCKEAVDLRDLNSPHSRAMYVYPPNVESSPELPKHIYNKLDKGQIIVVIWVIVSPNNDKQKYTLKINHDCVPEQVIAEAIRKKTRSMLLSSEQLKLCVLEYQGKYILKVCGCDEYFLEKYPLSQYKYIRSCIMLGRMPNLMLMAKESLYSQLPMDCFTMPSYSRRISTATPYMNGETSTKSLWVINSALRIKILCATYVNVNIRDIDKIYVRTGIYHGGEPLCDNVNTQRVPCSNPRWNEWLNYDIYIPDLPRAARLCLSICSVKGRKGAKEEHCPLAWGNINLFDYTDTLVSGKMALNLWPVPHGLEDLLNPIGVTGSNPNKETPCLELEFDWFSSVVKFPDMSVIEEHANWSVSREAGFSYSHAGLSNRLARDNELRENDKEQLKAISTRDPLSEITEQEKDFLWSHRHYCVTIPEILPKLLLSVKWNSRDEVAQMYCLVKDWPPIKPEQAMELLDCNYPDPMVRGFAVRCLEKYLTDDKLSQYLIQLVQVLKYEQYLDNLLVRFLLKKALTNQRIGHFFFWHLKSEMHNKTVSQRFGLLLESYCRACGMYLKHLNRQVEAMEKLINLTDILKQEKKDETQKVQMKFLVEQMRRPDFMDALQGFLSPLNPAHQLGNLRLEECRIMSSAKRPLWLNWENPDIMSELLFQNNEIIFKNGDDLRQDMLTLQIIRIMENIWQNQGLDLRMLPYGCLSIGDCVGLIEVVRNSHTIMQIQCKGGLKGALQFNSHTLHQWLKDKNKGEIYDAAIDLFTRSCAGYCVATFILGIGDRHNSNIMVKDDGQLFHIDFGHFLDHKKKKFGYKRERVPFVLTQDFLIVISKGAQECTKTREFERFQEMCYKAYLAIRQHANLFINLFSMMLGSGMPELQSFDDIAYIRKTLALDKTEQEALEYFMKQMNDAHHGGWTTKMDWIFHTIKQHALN
# assay protocol: Inhibition of PI3Kalpha (unknown origin) using PIP2 as substrate measured after 40 mins by ADP-glo plus luminescence assay
assay readout: IC50 (nM)
Field format: number, assumed nM, no unit text.

Here's what some known entries look like.
NC(=O)c1cccc2cc(C(=O)N3CCN(Cc4cc5nc(-c6cnc(N)nc6)nc(N6CCOCC6)c5o4)CC3)oc12 0.51
Cc1c(CN2CCN(C(=O)c3cc4cccc(C(N)=O)c4o3)CC2)sc2c(N3CCOCC3)nc(-c3ccc(F)c(N)c3)nc12 1380
Cc1c(CN2CCN(C(=O)c3cc4cccc(C(N)=O)c4o3)CC2)sc2c(N3CCOCC3)nc(-c3ccc(N)c(F)c3)nc12 1180

Next compound, please.
Q: Entry "NC(=O)c1cccc2cc(C(=O)N3CCN(Cc4cc5nc(-c6cnc(N)nc6)nc(N6CCOCC6)c5s4)CC3)oc12" : reported IC50 = ?
Ans: 0.6

###

# Tested on: MDA-MB-468
# assay protocol: Antiproliferative activity against human BRCA proficient MDA-MB-468 cells assessed as reduction in cell growth incubated for 7 days by cell titer-glo assay
# Type: functional, cell-based
# assay conditions: MDA-MB-468, 168 h
pIC50: −log10 of the molar value.
assay readout: pIC50

Q: Entry O=C(c1cc(Cc2n[nH]c(=O)c3ccccc23)ccc1F)N1CCN(C(=O)C2CC2)CC1 [OLAPARIB] : reported pIC50 = ?
Ans: < 5.00

Q: Entry "Cc1c(CN2CCN(C(=O)c3cc4cccc(C(N)=O)c4o3)CC2)sc2c(N3CCOCC3)nc(-c3cnc(N)cc3C(F)(F)F)nc12" : reported pIC50 = ?
Ans: 5.79

Q: Entry "Cc1c(CN2CCN(C(=O)c3cc4cccc(C(N)=O)c4o3)CC2)sc2c(N3CCOCC3)nc(-c3cccc4[nH]ncc34)nc12" : reported pIC50 = ?
Ans: < 5.00

Q: Entry "Cc1c(CN2CCN(C(=O)c3cc4cccc(C(N)=O)c4o3)CC2)sc2c(N3CCOCC3)nc(-c3ccc(N)c(F)c3)nc12" : reported pIC50 = ?
Ans: < 5.00

Q: Entry "Cc1c(CN2CCN(C(=O)c3cc4cccc(C(N)=O)c4o3)CC2)sc2c(N3CCOCC3)nc(-c3ccc(F)c(N)c3)nc12" : reported pIC50 = ?
Ans: < 5.00

Q: Entry Cc1c(CN2CCN(C(=O)[C@H](C)O)CC2)sc2c(N3CCOCC3)nc(-c3cnc(N)nc3)nc12 [APITOLISIB] : reported pIC50 = ?
Ans: 5.78

Q: Entry "Cc1c(CN2CCN(C(=O)c3cc4cccc(C(N)=O)c4o3)CC2)sc2c(N3CCOCC3)nc(-c3ccc4cn[nH]c4c3)nc12" : reported pIC50 = ?
Ans: < 5.00
